# Tested on: Plasmodium berghei
# Protocol Text: Screen against P. berghei liver stage (PbLuc), transformed with Luciferase, at 10uM
# Format: functional, HepG2
# Test Conditions: tested at 10 uM
Screen size: about 69,000 compounds; about 8,600 (12%) showed an effect of 50% or more. The list comes from a sample in which strong results are over-represented; it also holds close analogues and randomly drawn compounds.
INHIBITION values for the compounds below.
Note: unit % is implicit; provide only the numeric part.

Field: example entries. Status: answers known.
                                   compound  assay_endpoint  measured_value
0    COc1ccc2cnn(CC(=O)NC3CCCC3)c(=O)c2c1OC      INHIBITION            40.5
1  CN(Cc1n[nH]c2c1CCC2)c1nc(C2CCCC2)nc2c1CNC2      INHIBITION            26.8
2  Cc1nc(CNC(=O)NC(C)c2ccc3c(c2)OCCCO3)cs1 (centres undefined)      INHIBITION            1.04
3  Cc1nc(CN(C)C2CCN(Cc3nc4ccccc4s3)C2)no1 (centres undefined)      INHIBITION              60
4  CCc1nc(CN(C(C)=O)C2CCN(CCc3ccncc3)C2)no1 (centres undefined)      INHIBITION            66.7
5         CC(=O)N1CCN(CCNc2snc(Cl)c2C#N)CC1      INHIBITION           -4.93

Challenge: Any idea what INHIBITION was measured for CC(=O)N(Cc1noc(C2CC2)n1)C1CCN(CC2CCOCC2)C1 (centres undefined) ?
Response given: 56.6

Challenge: Dear colleague, I am looking for the recorded INHIBITION of the following compound: CN(Cc1n[nH]c2c1CCCC2)c1nc2c(c(=O)[nH]1)CCNCC2
Response given: 10.4

====

# Test system: Plasmodium berghei
# Protocol Text: Screen against P. berghei liver stage (PbLuc), transformed with Luciferase, at 10uM
# Assay type: functional, HepG2
# Test Conditions: tested at 10 uM
Screen size: about 69,000 compounds; about 8,600 (12%) showed an effect of 50% or more. Only a selection was taken, and strong results are over-represented in it overall.
Assay Endpoint: INHIBITION (%)
Expressed in %, but write only the number.

Sample records with INHIBITION:
>>> print(df.to_string())
                                   compound  measured_value
0  CN(C(=O)c1ccncc1)c1nnc(C2CCOC2)s1 (centres undefined)            1.25
1  Cc1cc(C(=O)N2CC[C@H]3[C@H](C[C@@H](CN4CCCC4)N3C)C2)c(C)o1            39.5

Challenge: Entry under review: COc1cc(C)c(S(=O)(=O)CC(=O)N(C)C2CC2)cc1OC . Reported INHIBITION?
Response given: 50.4

Challenge: # INHIBITION lookup, item CCN1CCN(C(=O)C(C)n2cc(Br)cn2)CC1 (centres undefined)
Response given: 21.7

====

# System: Plasmodium berghei
# Protocol Text: Screen against P. berghei liver stage (PbLuc), transformed with Luciferase, at 10uM
# Format: functional, HepG2
# Test Conditions: tested at 10 uM
Out of some 69,000 compounds screened, about 8,600 (12%) showed an effect of 50% or more. This is one part of a sample in which strong results are shown more often than they occur.
Label yes (1) when INHIBITION is at or above 40%; otherwise label no (0).

>>> print(df.to_string())
                                   molecule    class
0  COCCNC(=O)[C@@H]1CN(Cc2sccc2C)C[C@H]2OCC[C@H]21   no (0)
1    CCn1ccnc1CN1CCC(CCC(=O)Nc2ccccc2Cl)CC1  yes (1)
2  Cc1cnn(CC2CCCN2C(=O)c2csc(C(C)C)n2)c1 (stereo not given)   no (0)
3     Cn1ccnc1CN1CCC(CCC(=O)Nc2ccccc2Cl)CC1   no (0)
4  Cc1nnc([C@H]2C[C@H]3OCC[C@H]3N(S(=O)(=O)N(C)C)C2)o1  yes (1)
5  Cc1ccc(NC2CCN(C(=O)CCc3c(C)noc3C)CC2)nn1   no (0)
6   O=C(CCC1CCN(Cc2ncc[nH]2)CC1)Nc1ccccc1Cl   no (0)
7  O=C(Nc1ccc(-c2cnc(NCCO)nc2)cc1)[C@@H]1CCCCN1   no (0)

Challenge: Form field: INHIBITION at least 40%? Entry: O=C(NC[C@H]1OC[C@@H](NCc2ccccc2F)[C@@H]1O)Nc1ccccc1
Response given: no (0)

Challenge: Quick check, INHIBITION >= 40%? CCCc1ccc(N2CCN(Cc3nc4ccccc4n3C)CC2)cc1
Response given: no (0)

Challenge: Quick check, INHIBITION >= 40%? O=C(NC[C@H]1OC[C@@H](NC2CCOCC2)[C@@H]1O)Nc1ccccc1
Response given: yes (1)

Challenge: Is INHIBITION at least 40%? Consider Cn1ccc2cc(CC3COCCN(C(=O)c4ccccn4)C3)ccc21 (stereo not given)
Response given: no (0)

Challenge: Is it the case that Cc1noc(CCNC(=O)NCc2ccc(OC3CCCC3)cc2)n1 has INHIBITION reaching or exceeding 40%?
Response given: no (0)
